Test: Plasma and liver studies after 14 days of repeated oral dose
Format: in vivo, C57/BL6 mice
Details: C57/BL6, mouse, liver; 50 mg/kg BID oral 14 days, Male mice; read-out: Average Concentration Liver
observed_property: concentration at 14 days (ng/g)
Respond with the bare value in ng/g.

Q: Fill blank: measured concentration at 14 days of the compound COC(=O)C1=CNC=C(C(=O)OC)C1c1ccc(F)c(C(F)(F)F)c1 [Compound 103] is ____.
Result: 17500

###

For each entry below, report its selectivity ratio value.
Molecular target: CaV1.2 channel over KCa3.1 (Homo sapiens, UniProt Q13936)
Sequence (Q13936 whole entry): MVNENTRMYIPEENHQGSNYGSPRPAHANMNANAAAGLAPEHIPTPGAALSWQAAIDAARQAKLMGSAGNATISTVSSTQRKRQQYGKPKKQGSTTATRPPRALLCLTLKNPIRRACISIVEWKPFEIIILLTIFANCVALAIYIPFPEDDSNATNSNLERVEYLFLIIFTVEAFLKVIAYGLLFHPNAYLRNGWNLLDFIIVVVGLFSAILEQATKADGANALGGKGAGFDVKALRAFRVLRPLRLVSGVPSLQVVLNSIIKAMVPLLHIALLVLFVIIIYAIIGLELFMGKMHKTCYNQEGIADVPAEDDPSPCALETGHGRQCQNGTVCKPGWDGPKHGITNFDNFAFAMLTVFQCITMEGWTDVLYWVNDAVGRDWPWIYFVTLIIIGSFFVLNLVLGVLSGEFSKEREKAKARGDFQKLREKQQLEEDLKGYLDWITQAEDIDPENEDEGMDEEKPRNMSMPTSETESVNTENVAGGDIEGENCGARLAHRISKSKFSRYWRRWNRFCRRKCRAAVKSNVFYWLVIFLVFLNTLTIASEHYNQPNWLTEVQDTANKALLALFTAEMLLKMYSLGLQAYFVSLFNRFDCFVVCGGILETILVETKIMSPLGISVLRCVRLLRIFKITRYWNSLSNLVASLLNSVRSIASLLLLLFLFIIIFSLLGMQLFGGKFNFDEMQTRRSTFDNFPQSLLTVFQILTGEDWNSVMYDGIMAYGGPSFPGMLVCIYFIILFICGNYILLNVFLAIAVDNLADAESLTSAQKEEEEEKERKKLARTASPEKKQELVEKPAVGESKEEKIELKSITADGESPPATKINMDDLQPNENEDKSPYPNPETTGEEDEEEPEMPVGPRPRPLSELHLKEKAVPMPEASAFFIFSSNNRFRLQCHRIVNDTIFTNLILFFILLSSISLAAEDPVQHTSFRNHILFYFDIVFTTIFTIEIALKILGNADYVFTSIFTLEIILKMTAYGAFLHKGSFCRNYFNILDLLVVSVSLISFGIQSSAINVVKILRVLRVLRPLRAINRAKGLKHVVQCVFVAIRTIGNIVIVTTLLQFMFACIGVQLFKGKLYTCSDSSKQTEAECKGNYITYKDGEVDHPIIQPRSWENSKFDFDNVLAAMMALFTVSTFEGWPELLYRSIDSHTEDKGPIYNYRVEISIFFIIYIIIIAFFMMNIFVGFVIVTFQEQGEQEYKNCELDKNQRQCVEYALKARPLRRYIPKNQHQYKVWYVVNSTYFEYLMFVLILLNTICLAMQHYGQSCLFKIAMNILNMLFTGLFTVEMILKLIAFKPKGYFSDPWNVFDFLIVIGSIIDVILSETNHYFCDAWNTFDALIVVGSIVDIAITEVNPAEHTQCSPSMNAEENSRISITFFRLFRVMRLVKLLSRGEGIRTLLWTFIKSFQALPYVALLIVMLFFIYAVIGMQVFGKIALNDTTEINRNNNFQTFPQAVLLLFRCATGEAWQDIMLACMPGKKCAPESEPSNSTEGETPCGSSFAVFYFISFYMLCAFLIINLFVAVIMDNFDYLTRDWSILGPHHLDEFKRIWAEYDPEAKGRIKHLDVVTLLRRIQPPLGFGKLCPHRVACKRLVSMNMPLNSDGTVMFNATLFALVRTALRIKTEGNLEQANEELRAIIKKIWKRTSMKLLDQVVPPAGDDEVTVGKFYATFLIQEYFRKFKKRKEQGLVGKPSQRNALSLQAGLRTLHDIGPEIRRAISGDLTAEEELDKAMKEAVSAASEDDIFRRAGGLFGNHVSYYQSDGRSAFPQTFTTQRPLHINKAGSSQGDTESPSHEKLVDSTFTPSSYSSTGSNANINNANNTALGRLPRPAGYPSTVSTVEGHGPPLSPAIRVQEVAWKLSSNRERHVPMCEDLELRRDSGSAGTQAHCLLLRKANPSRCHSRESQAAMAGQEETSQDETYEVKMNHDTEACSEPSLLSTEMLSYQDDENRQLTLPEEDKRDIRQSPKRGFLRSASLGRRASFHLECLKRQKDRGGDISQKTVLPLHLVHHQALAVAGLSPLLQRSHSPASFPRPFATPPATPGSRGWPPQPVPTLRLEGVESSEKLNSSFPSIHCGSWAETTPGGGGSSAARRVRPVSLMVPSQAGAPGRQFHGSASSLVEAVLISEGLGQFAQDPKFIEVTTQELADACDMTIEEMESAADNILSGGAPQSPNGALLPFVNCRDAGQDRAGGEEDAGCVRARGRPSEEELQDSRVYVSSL
Experiment: in vitro
Details: pH 7.4
The reply should be a number, written without any unit.

Q: Hello, I am looking for reported selectivity ratio with CaV1.2 channel over KCa3.1 (Homo sapiens, UniProt Q13936) for COC(=O)C1=CNC=C(C(=O)OC)C1c1ccc(F)c(C(F)(F)F)c1 [Compound 103] . Could you help?
Result: 2210

Q: Let us now turn to COC(=O)C1=C(C)NC(C)=C(C(C)=O)C1c1cccc([N+](=O)[O-])c1 (stereo not shown) [Compound 79]
Result: 14

Q: Let us now turn to COC(=O)C1=CNC=C(C(=O)OC)C1c1ccc(Cl)c(C(F)(F)F)c1 [Compound 113]
Result: 649

Q: Let us now turn to COC(=O)C1=C(C)NC(C)=C(C(=O)OC)C1c1ccc(F)c(C(F)(F)F)c1 [Compound 101]
Result: 200

###

Test: Plasma and brain distribution studies
Settings: male, C57BL/6, mouse, brain, ip, 50 mg/kg
observed_property: half-life (h)
Respond with the bare value in h.

Q: Fill blank: measured half-life of the molecule COC(=O)C1=CNC=C(C(=O)OC)C1c1ccc(F)c(C(F)(F)F)c1 [Compound 103] is ____.
Result: 1.06

###

Assay: Plasma and liver studies after 14 days of repeated oral dose
Format: in vivo, C57/BL6 mice
Conditions: C57/BL6, mouse, liver/plasma; 50 mg/kg BID oral 14 days, Female mice; read-out: Liver to Plasma Ratio
observed_property: Kp at 14 days

Q: Fill blank: measured Kp at 14 days of the molecule COC(=O)C1=CNC=C(C(=O)OC)C1c1ccc(F)c(C(F)(F)F)c1 is ____.
Result: 31.9

###

Test: Plasma and brain distribution studies
Settings: male, C57BL/6, mouse, brain, ip, 50 mg/kg
observed_property: Cmax (ng/g)
Respond with the bare value in ng/g.

Q: Fill blank: measured Cmax of the molecule COC(=O)C1=CNC=C(C(=O)OC)C1c1ccc(F)c(C(F)(F)F)c1 [Compound 103] is ____.
Result: 26800

###

Target: KV1.2 (Rattus norvegicus, UniProt P63142)
Construct: expressed in transfected cells; host or cells: B82
Sequence (P63142 whole entry): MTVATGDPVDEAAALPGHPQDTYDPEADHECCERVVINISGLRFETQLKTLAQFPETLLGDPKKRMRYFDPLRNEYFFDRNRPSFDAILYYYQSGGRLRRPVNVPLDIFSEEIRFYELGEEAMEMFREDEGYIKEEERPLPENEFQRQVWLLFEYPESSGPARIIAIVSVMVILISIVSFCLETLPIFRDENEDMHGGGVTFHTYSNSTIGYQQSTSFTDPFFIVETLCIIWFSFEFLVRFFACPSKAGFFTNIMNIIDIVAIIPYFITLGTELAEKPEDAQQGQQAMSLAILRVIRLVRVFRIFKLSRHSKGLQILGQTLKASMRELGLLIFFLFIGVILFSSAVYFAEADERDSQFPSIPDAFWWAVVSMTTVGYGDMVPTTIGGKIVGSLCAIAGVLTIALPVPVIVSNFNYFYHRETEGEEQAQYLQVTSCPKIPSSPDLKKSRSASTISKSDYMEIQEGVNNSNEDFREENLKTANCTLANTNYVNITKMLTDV
Assay: Potassium channels patch-clamp (QPatch), KV1.2
Type: cell-based
Details: B82 Rat KV1.2; read-out: KV1.2
observed_property: IC50

Q: Fill blank: measured IC50 of the compound COC(=O)C1=CNC=C(C(=O)OC)C1c1cccc(C(F)(F)F)c1 [Compound 108] is ____.
Result: > 10 µM

Q: Let us now turn to COC(=O)C1=CNC(C)=C(C(=O)OC)C1c1ccc(F)c(C(F)(F)F)c1 (centres unmarked) [Compound 104]
Result: > 10 µM

###

For each entry below, report its IC50 value.
Biological target: KV1.2 (Rattus norvegicus)
Construct: expressed in transfected cells; host or cells: B82
Assay: Potassium channels patch-clamp (QPatch), KV1.2
Format: cell-based
Procedure: The effects of Group 4 compounds on related potassium channels were evaluated by patch-clamp using a QPatch HTX automated electrophysiology platform (Sophion, Denmark). The giga-seal and whole-cell requirements for the automated electrophysiology were the following: minimum seal resistance=0.1 GO, holding potential=−80 mV, holding pressure=−20 mbar; and positioning pressure=−70 mbar.

Q: Fill blank: measured IC50 of the molecule COC(=O)C1=CNC=C(C(=O)OC)C1c1ccc(F)c(C(F)(F)F)c1 is ____.
Result: > 10 µM

Q: Let us now turn to COC(=O)C1=C(C)NC(C)=C(C(=O)OC)C1c1ccc(F)c(C(F)(F)F)c1
Result: > 10 µM
